species on record: Rattus norvegicus; assay: Open TG-GATES - Regimen: Single; format: toxicity, organism-based, Sprague-Dawley; design: regimen Single, gender Male, age 6 weeks; conditions: in vivo, po, 0 mg/kg, 6 h, tissue Blood, route gavage, dose level Control
RBC values, listed per item
The figure you give is taken to be in x10_4/ul; do not add the unit.

1) Cn1cc[nH]c1=S	605
2) C=C(C)[C@H]1Cc2c(ccc3c2O[C@@H]2COc4cc(OC)c(OC)cc4[C@@H]2C3=O)O1	625.8
3) Cc1ccc2cc3c(ccc4ccccc43)c3c2c1CC3	616.2

Shifting focus to the compound that follows.
Exercise: I am curious: what RBC value has been reported for C[C@H]1O[C@H](O[C@H]2[C@H](O)[C@@H](O)[C@@H](O[C@H]3[C@H](O)[C@@H](O)C(O)O[C@@H]3CO)O[C@@H]2CO)[C@H](O)[C@@H](O)[C@@H]1N[C@H]1C=C(CO)[C@@H](O)[C@H](O)[C@H]1O (some centres undefined) ?
Solution: 629.8

----------
organism: Rattus norvegicus; experiment: Open TG-GATES - Regimen: Single; assay type: toxicity, organism-based, Sprague-Dawley; parameters: regimen Single, gender Male, age 6 weeks; details: in vivo, po, 0 mg/kg, 9 h, tissue Plasma, route gavage, dose level Control
recordedMetric: PL

Check out these entries, answers already filled in.
1) C=C(C)[C@H]1Cc2c(ccc3c2O[C@@H]2COc4cc(OC)c(OC)cc4[C@@H]2C3=O)O1	134.2 mg/dL
2) OCCN1CCN(CCCN2c3ccccc3Sc3ccc(C(F)(F)F)cc32)CC1	145 mg/dL
3) Cc1cccc(C)c1OCC(C)N (stereo not given)	122 mg/dL
4) O=[N+]([O-])c1ccc(O)c([N+](=O)[O-])c1	140 mg/dL

Shifting focus to the molecule that follows.
Exercise: I am curious: what PL value has been reported for CCOC(=O)C(C)(C)Oc1ccc(Cl)cc1 [CLOFIBRATE] ?
Solution: 136.8 mg/dL

----------
organism: Rattus norvegicus; assay: Open TG-GATES - Regimen: Daily Repeat; format: toxicity, organism-based, Sprague-Dawley; set-up: regimen Daily Repeat, gender Male, age 6 weeks; details: in vivo, po, 0 mg/kg, […], tissue Blood, route gavage, dose level Control, time 28 day
Fbg values, listed per item
The figure you give is taken to be in mg/dL; do not add the unit.

1) C[C@H]1C(=O)O[C@@H]2CCN3CC=C(COC(=O)[C@](C)(O)[C@]1(C)O)[C@H]23	314.2
2) OCCN1CCN(CCCN2c3ccccc3Sc3ccc(C(F)(F)F)cc32)CC1	231
3) C[C@H]1O[C@H](O[C@H]2[C@H](O)[C@@H](O)[C@@H](O[C@H]3[C@H](O)[C@@H](O)C(O)O[C@@H]3CO)O[C@@H]2CO)[C@H](O)[C@@H](O)[C@@H]1N[C@H]1C=C(CO)[C@@H](O)[C@H](O)[C@H]1O (some centres undefined)	283.4
4) Cc1cccc(C)c1OCC(C)N (centres undefined)	307.6

Exercise: I am curious: what Fbg value has been reported for C=C(C)[C@H]1Cc2c(ccc3c2O[C@@H]2COc4cc(OC)c(OC)cc4[C@@H]2C3=O)O1 ?
Solution: 217.6

Exercise: I am curious: what Fbg value has been reported for O=C1CN(/N=C/c2ccc([N+](=O)[O-])o2)C(=O)N1 ?
Solution: 227
